System: SK-N-AS (Neuroblastoma)
Test: combination Emax (second highest fraction inhibited in the dose matrix, 72 h); higher = more inhibition; extreme values may be limits of the assay
Rule: label 1 for combination Emax not less than 0.7, label 0 for anything less.

Sample answers from the record:
compound	system	classification
NC1(C(=O)N[C@@H](CCO)c2ccc(Cl)cc2)CCN(c2ncnc3[nH]ccc23)CC1 [Capivasertib] + Cn1cnc2c(F)c(Nc3ccc(Br)cc3Cl)c(C(=O)NOCCO)cc21 [Selumetinib] (first compound max 10 µM, 7x7, partner max 10 µM)	SK-N-AS (Neuroblastoma)	label 0
COc1cccc(OCCCN)c1-c1cc(Nc2cnc(C#N)cn2)n[nH]1 [Prexasertib] + O=C(c1cc(Cc2n[nH]c(=O)c3ccccc23)ccc1F)N1CCN(C(=O)C2CC2)CC1 [Olaparib] (first compound max 1 µM, 7x7, partner max 10 µM)	SK-N-AS (Neuroblastoma)	label 1
CCc1c2c(nc3ccc(O)cc13)-c1cc3c(c(=O)n1C2)COC(=O)[C@]3(O)CC [SN-38] + CN(C)CCCOc1ccc(-c2ccc3ncc4c(c3c2)n(C2CCOCC2)c(=O)n4C)cn1 [AZD0156] (first compound max 0.3 µM, 7x7, partner max 1 µM)	SK-N-AS (Neuroblastoma)	label 1
Cc1c2c(nn1C)CSCc1cc(n(C)n1)CSc1cc(c3ccccc3c1)OCCCc1c(C(=O)O)n(C)c3c-2c(Cl)ccc13 [AZD5991] + CCN(CCO)CCCOc1ccc2c(Nc3cc(CC(=O)Nc4cccc(F)c4)[nH]n3)ncnc2c1 [AZD2811] (first compound max 1 µM, 7x7, partner max 1 µM)	SK-N-AS (Neuroblastoma)	label 1
Cc1c2c(nn1C)CSCc1cc(n(C)n1)CSc1cc(c3ccccc3c1)OCCCc1c(C(=O)O)n(C)c3c-2c(Cl)ccc13 [AZD5991] + CC1(C)CCC(CN2CCN(c3ccc(C(=O)NS(=O)(=O)c4ccc(NCC5CCOCC5)c([N+](=O)[O-])c4)c(Oc4cnc5[nH]ccc5c4)c3)CC2)=C(c2ccc(Cl)cc2)C1 [Venetoclax] (first compound max 1 µM, 7x7, partner max 1 µM)	SK-N-AS (Neuroblastoma)	label 1
C[C@@H](Nc1cc(F)cc(F)c1)c1cc(C(=O)N(C)C)cc2c(=O)cc(N3CCOCC3)oc12 [AZD8186] + CC(=O)c1c(C)c2cnc(Nc3ccc(N4CCNCC4)cn3)nc2n(C2CCCC2)c1=O [Palbociclib] (first compound max 10 µM, 7x7, partner max 10 µM)	SK-N-AS (Neuroblastoma)	label 0
C[C@@H](Nc1cc(F)cc(F)c1)c1cc(C(=O)N(C)C)cc2c(=O)cc(N3CCOCC3)oc12 [AZD8186] + C1CN(CCC1(C(=O)N[C@@H](CCO)C2=CC=C(C=C2)Cl)N)C3=NC=NC4=C3C=CN4 [AZD5363] (first compound max 10 µM, 7x7, partner max 10 µM)	SK-N-AS (Neuroblastoma)	label 0
COc1cccc(OCCCN)c1-c1cc(Nc2cnc(C#N)cn2)n[nH]1 [Prexasertib] + CCc1c2c(nc3ccc(O)cc13)-c1cc3c(c(=O)n1C2)COC(=O)[C@]3(O)CC [SN-38] (first compound max 1 µM, 7x7, partner max 0.3 µM)	SK-N-AS (Neuroblastoma)	label 1

Confirm if combination Emax reported for the compound Cc1c2c(nn1C)CSCc1cc(n(C)n1)CSc1cc(c3ccccc3c1)OCCCc1c(C(=O)O)n(C)c3c-2c(Cl)ccc13 [AZD5991] + C[C@@H]1COCCN1C2=NC(=NC(=C2)C3(CC3)[S@](=N)(=O)C)C4=C5C=CNC5=NC=C4 [AZD6738] (first compound max 1 µM, 7x7, partner max 10 µM) is 0.7 or above. label 1

Confirm if combination Emax reported for the compound CN(CCO)CC[C@H](CSc1ccccc1)Nc1ccc(S(=O)(=O)NC(=O)c2ccc(N3CCC([C@@H](O)c4ccccc4-c4ccc(Cl)cc4)CC3)cc2)cc1S(=O)(=O)C(F)(F)F [AZD4320] + Nc1ccn([C@@H]2O[C@H](CO)[C@@H](O)C2(F)F)c(=O)n1 [Gemcitabine] (first compound max 1 µM, 7x7, partner max 0.3 µM) is 0.7 or above. label 0

Confirm if combination Emax reported for the compound CN(CCO)CC[C@H](CSc1ccccc1)Nc1ccc(S(=O)(=O)NC(=O)c2ccc(N3CCC([C@@H](O)c4ccccc4-c4ccc(Cl)cc4)CC3)cc2)cc1S(=O)(=O)C(F)(F)F [AZD4320] + CCN(CCO)CCCOc1ccc2c(Nc3cc(CC(=O)Nc4cccc(F)c4)[nH]n3)ncnc2c1 [AZD2811] (first compound max 1 µM, 7x7, partner max 1 µM) is 0.7 or above. label 0
